# assayed_system: IDO1 in Hela cancer cells (Homo sapiens)
# Construct: endogenous in cells
# test_description: IDO1 Cellular Assay (kynurenine production in IFN-γ stimulated Hela cancer cells)
# conditions: human IFN-γ 50 ng/mL, 48 hours incubation, kynurenine at 490 nm
reported_endpoint: IC50

{"molecule": "O=C(NC1CCCCC1)N[C@H]1[C@@H]2C[C@@](O)(c3cc(Cl)cc4[nH]ncc34)C[C@@H]21 [Example 126]", "IC50": "> 5 µM"}
{"molecule": "CCNC(=O)N[C@H]1[C@@H]2C[C@@](O)(c3cc(Cl)cc4[nH]ncc34)C[C@@H]21 [Example 125]", "IC50": "> 5 µM"}
{"molecule": "CNC(=O)N[C@H]1[C@@H]2C[C@@](O)(c3cc(Cl)cc4cn[nH]c34)C[C@@H]21 [Example 133]", "IC50": "> 5 µM"}
{"molecule": "O=S(=O)(NC1CC1)N[C@H]1[C@@H]2C[C@@](O)(c3cc(Cl)cc4[nH]ncc34)C[C@@H]21 [Example 160]", "IC50": "1 to 5 µM"}
{"molecule": "O=C(N[C@H]1[C@@H]2C[C@@](O)(c3cc(Cl)cc4[nH]ncc34)C[C@@H]21)c1cccc(Br)c1 [Example 146]", "IC50": "≤ 0.5 µM"}

stdin: Would you kindly share the measured IC50 for O=C(N[C@H]1[C@@H]2C[C@@](O)(c3cc(Cl)cc4[nH]ncc34)C[C@@H]21)c1ccc(Cl)cc1 [Example 119] ?
stdout: ≤ 0.5 µM

stdin: // query: CC(=O)N1C[C@@H]2CN(c3c(C(F)(F)F)ccc4cncn34)C[C@@H]2C1(C)C (racemic) [Example 47]
stdout: > 5 µM

stdin: // query: CC(=O)N1C[C@@H]2CN(c3cc(C(F)(F)F)cc4cncn34)C[C@@H]2C1(C)C (racemic) [Example 51]
stdout: > 5 µM

stdin: // query: O=C(N[C@H]1[C@@H]2C[C@@](O)(c3cc(Cl)cc4[nH]ncc34)C[C@@H]21)c1cnoc1 [Example 158]
stdout: > 5 µM

====

# assayed_system: TDO2 in A172 cancer cells (Homo sapiens, UniProt P48775)
# Construct: endogenous in cells
# Sequence (P48775 whole entry): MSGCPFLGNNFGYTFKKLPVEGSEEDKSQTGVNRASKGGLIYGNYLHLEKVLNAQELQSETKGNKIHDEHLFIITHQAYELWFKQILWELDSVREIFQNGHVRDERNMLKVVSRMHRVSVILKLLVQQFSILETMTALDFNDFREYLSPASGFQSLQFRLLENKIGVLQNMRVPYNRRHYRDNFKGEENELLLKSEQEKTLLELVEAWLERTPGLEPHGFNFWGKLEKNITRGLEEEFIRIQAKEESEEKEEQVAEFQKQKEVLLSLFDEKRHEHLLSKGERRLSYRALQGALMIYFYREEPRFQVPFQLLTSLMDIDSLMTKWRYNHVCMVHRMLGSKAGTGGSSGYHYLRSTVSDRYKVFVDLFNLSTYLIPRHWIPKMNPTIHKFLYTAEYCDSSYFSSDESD
# test_description: TDO2 Cellular Assay (kynurenine production in A172 cancer cells)
# conditions: L-Trp 1 mM, 24 hours incubation, kynurenine at 490 nm
# Experimental: A172 cancer cells (3×10^4 per well) in 85 μL DMEM medium containing 10% FBS were seeded in a 96-well plate and incubated at 95% humidity and 5% CO2 at 37° C. for overnight. […] The yellow color derived from kynurenine was measured at 490 nm using a microplate reader. […] Data was analyzed by GraphPad Prism 5 and the IC50 values were obtained by non-linear regression. […]
pIC50: −log10 of the molar value.
reported_endpoint: pIC50

Example entries and their recorded answers appear below.
{"compound": "O=S(=O)(c1ccccc1)N1C[C@@H]2C[C@@](O)(c3cc(Cl)cc4cn[nH]c34)C[C@@H]2C1 [Example 102]", "result": "< 5.30"}
{"compound": "O=C([C@H]1CC[C@H](O)CC1)N1C[C@@H]2C[C@@](O)(c3cc(Cl)cc4[nH]ncc34)C[C@@H]2C1 [Example 66]", "result": "≥ 6.30"}
{"compound": "CC(=O)N1C[C@@H]2CN(c3c(C4CC4)ccc4cncn34)C[C@@H]2C1(C)C (racemic) [Example 56]", "result": "< 5.30"}

stdin: Would you kindly share the measured pIC50 for O=S(=O)(N[C@H]1[C@@H]2C[C@@](O)(c3cc(Cl)cc4[nH]ncc34)C[C@@H]21)c1ccccc1 [Example 95] ?
stdout: ≥ 6.30

stdin: // query: CC(=O)N1C[C@@H]2C[C@@](O)(c3cc(Cl)cn4cncc34)C[C@@H]2C1 [Example 6]
stdout: 6.00 to 6.30

stdin: // query: N#Cc1ccc(C(=O)N2C[C@@H]3C[C@@](O)(c4cc(Cl)cc5[nH]ncc45)C[C@@H]3C2)cc1 [Example 42]
stdout: ≥ 6.30

stdin: // query: O=C(Cc1ccc(Cl)cc1)N1C[C@@H]2C[C@@](O)(c3cc(Cl)cc4[nH]ncc34)C[C@@H]2C1 [Example 175]
stdout: ≥ 6.30

stdin: // query: O=C(N[C@H]1[C@@H]2C[C@@](O)(c3cc(Cl)cc4cn[nH]c34)C[C@@H]21)C1CC1 [Example 107]
stdout: ≥ 6.30

====

# assayed_system: IDO1 in Hela cancer cells (Homo sapiens, UniProt P14902)
# Construct: endogenous in cells
# Sequence (P14902 whole entry): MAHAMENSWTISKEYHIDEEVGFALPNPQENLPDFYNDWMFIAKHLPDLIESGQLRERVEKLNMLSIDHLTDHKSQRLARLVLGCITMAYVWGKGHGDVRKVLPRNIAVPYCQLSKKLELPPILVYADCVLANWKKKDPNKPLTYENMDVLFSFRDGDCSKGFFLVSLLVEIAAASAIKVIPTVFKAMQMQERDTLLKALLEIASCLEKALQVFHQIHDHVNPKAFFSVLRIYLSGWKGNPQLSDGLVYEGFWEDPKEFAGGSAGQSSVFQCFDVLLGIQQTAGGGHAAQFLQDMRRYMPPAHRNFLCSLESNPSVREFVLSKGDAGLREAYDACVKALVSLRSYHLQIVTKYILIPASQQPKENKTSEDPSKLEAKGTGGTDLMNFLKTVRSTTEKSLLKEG
# test_description: IDO1 Cellular Assay (kynurenine production in IFN-γ stimulated Hela cancer cells)
# conditions: human IFN-γ 50 ng/mL, 48 hours incubation, kynurenine at 490 nm
pIC50: −log10 of the molar value.
Each entry below lists one item and its recorded pIC50 value.

stdin: Tell me reported pIC50 for CC(=O)N1C[C@@H]2C[C@@](O)(c3cc(Cl)cc4[nH]ncc34)C[C@@H]2C1 [Example 22] , tested with IDO1 in Hela cancer cells (Homo sapiens, UniProt P14902).
stdout: < 5.30

stdin: // query: CC1(C)[C@H]2CN(c3cc(Cl)cc4cncn34)C[C@H]2CN1S(C)(=O)=O (racemic) [Example 44]
stdout: < 5.30

stdin: // query: CC1(C)[C@H]2CN(c3c(C(F)(F)F)ccc4cncn34)C[C@H]2CN1S(C)(=O)=O (racemic) [Example 48]
stdout: < 5.30

stdin: // query: CC1(C)[C@H]2CN(c3cc(C(F)(F)F)cc4cncn34)C[C@H]2CN1S(C)(=O)=O (racemic) [Example 50]
stdout: < 5.30

stdin: // query: O=C(N[C@H]1[C@@H]2C[C@@](O)(c3cc(Cl)cc4[nH]ncc34)C[C@@H]21)c1cccc(C2CC2)c1 [Example 178]
stdout: ≥ 6.30

stdin: // query: O=C(N[C@H]1[C@@H]2C[C@@](O)(c3cc(Cl)cc4[nH]ncc34)C[C@@H]21)c1ccc(F)c(OC(F)(F)F)c1 [Example 180]
stdout: ≥ 6.30

stdin: // query: CS(=O)(=O)N1C[C@@H]2C[C@@](O)(c3cc(Cl)cc4cn[nH]c34)C[C@@H]2C1 [Example 96]
stdout: 5.30 to 6.00

stdin: // query: O=C(Nc1ccccc1)N[C@H]1[C@@H]2C[C@@](O)(c3cc(Cl)cc4cn[nH]c34)C[C@@H]21 [Example 132]
stdout: 5.30 to 6.00

stdin: // query: CS(=O)(=O)N[C@H]1C[C@@H]2C[C@@](O)(c3cc(Cl)cc4[nH]ncc34)C[C@@H]2C1 [Example 3]
stdout: < 5.30

stdin: // query: CC(=O)N1C[C@@H]2C[C@@](O)(c3cc(Cl)cn4cncc34)C[C@@H]2C1 [Example 6]
stdout: < 5.30

stdin: // query: O=S(=O)(C1CCOCC1)N1C[C@@H]2C[C@@](O)(c3cc(Cl)cc4cn[nH]c34)C[C@@H]2C1 [Example 101]
stdout: < 5.30

stdin: // query: O[C@@H]1C[C@@H]2C[C@@](O)(c3cc(Cl)cc4[nH]ncc34)C[C@@H]2C1 [Example 32]
stdout: 5.30 to 6.00

stdin: // query: CC1(C)[C@H]2CN(c3c(C4CC4)ccc4cncn34)C[C@H]2CN1S(C)(=O)=O (racemic) [Example 55]
stdout: < 5.30

stdin: // query: O=C(N[C@H]1[C@@H]2C[C@@](O)(c3cc(Cl)cc4[nH]ncc34)C[C@@H]21)c1ccccc1 [Example 93]
stdout: 6.00 to 6.30

stdin: // query: CS(=O)(=O)N1C[C@@H]2C[C@@](O)(c3cc(Cl)cn4cncc34)C[C@@H]2C1 [Example 52]
stdout: 5.30 to 6.00

stdin: // query: O=C(N[C@H]1[C@@H]2C[C@@](O)(c3cc(Cl)cc4[nH]ncc34)C[C@@H]21)c1cncc(Cl)c1 [Example 179]
stdout: ≥ 6.30

stdin: // query: N#Cc1cccc(C(=O)N[C@H]2[C@@H]3C[C@@](O)(c4cc(Cl)cc5[nH]ncc45)C[C@@H]32)c1 [Example 144]
stdout: ≥ 6.30

stdin: // query: O=C(Nc1cccc(Cl)c1)N[C@H]1[C@@H]2C[C@@](O)(c3cc(Cl)cc4[nH]ncc34)C[C@@H]21 [Example 122]
stdout: 5.30 to 6.00

stdin: // query: O=C(N[C@H]1[C@@H]2C[C@@](O)(c3cc(Cl)cc4[nH]ncc34)C[C@@H]21)c1nc2cc(Cl)ccc2[nH]1 [Example 136]
stdout: 5.30 to 6.00

stdin: // query: CS(=O)(=O)N1C[C@@H]2C[C@@](O)(c3c(Cl)ccc4cncn34)C[C@@H]2C1 [Example 53]
stdout: < 5.30

stdin: // query: O=C(N[C@H]1[C@@H]2C[C@@](O)(c3cc(Cl)cc4[nH]ncc34)C[C@@H]21)c1cccc(C(F)(F)F)c1 [Example 142]
stdout: ≥ 6.30

Cited source for all entries: patent US11548868B2
